# Tested on: barnyardgrass (Echinochloa crus-galli)
# test-name: Test C preemergence, plant response rating
# Type: in vivo
# test-parameters: Echinochloa crus-galli, pre-emergence; Preemergence, 125 g ai/ha; scale of 0 to 100
parameter-measured: pest or weed control at 125 g/ha (%)
Please respond with the number in % and leave the unit unwritten.

Here are 3 molecules together with their reported answers.
molecule	unit	pest or weed control at 125 g/ha
O=C(CCC(F)(F)F)c1c(Cl)cccc1Oc1ncc(Cl)cn1	%	100
CC(CC(F)(F)F)OC(=O)c1c(Br)cccc1Oc1ncc(Cl)cn1 (stereo not shown)	%	75
O=C(OCCCC(F)(F)F)c1c(Br)cccc1Oc1ncc(Cl)cn1	%	85

Now for the molecule whose pest or weed control at 125 g/ha we want.
**Q:** Using the record for `N#Cc1cccc(Oc2ncc(Cl)cn2)c1CCCCC(F)(F)F` , report its pest or weed control at 125 g/ha.
**A:** 100

----------
# Tested on: ryegrass, Italian (Italian ryegrass, Lolium multiflorum)
# test-name: Test C postemergence, plant response rating
# Assay type: in vivo
# test-parameters: Lolium multiflorum, post-emergence, 16 g ai/ha, scale 0 to 100
Listed next: entries and their corresponding pest or weed control at 16 g/ha.
Please respond with the number in % and leave the unit unwritten.

Here are 3 molecules together with their reported answers.
C=CCCOC(=O)c1c(Br)cccc1Oc1ncc(Cl)cn1 0
O=C(OCC(F)(F)C(F)(F)F)c1c(Br)cccc1Oc1ncc(Cl)cn1 0
O=C(OCCC(F)(F)F)c1c(Br)cccc1Oc1ncc(Cl)cn1 5

Now for the molecule whose pest or weed control at 16 g/ha we want.
**Q:** Lab note: need pest or weed control at 16 g/ha with ryegrass, Italian (Italian ryegrass, Lolium multiflorum) for entry `CCCOC(=O)c1c(Br)cccc1Oc1ncc(Cl)cn1` , please look it up.
**A:** 0

----------
# System: blackgrass (Alopecurus myosuroides)
# test-name: Test C preemergence, plant response rating
# Format: in vivo
# test-parameters: Preemergence; 16 g ai/ha; scale 0 to 100
# Text: […]
parameter-measured: Plant response rating, Blackgrass
// no unit string in output, number only

Here are 5 molecules together with their reported answers.
FC(F)(F)CCCCc1c(Br)cccc1Oc1ncc(Cl)cn1 10
O=C(CCCC(F)(F)F)c1c(Cl)cccc1Oc1ncc(Cl)cn1 5
N#Cc1cccc(Oc2ncc(Cl)cn2)c1C(=O)OCCC(F)(F)F 0
N#Cc1cccc(Oc2ncc(Cl)cn2)c1CCCC(F)(F)F 60
O=C(CCCC(F)(F)F)c1c(Br)cccc1Oc1ncc(Cl)cn1 5

Now for the molecule whose Plant response rating, Blackgrass we want.
**Q:** Using the record for `O=C(OCCC(F)(F)F)c1c(Br)cccc1Oc1ncc(Br)cn1` , report its Plant response rating, Blackgrass.
**A:** 0

----------
# System: Italian ryegrass (Lolium multiflorum)
# test-name: Test A postemergence, visual injury rating
# Assay type: in vivo
# test-parameters: Lolium multiflorum, post-emergence, 240 h, 500 g ai/ha, 0 is no effect, 100 is complete control, read-out: Ryegrass, Italian plant response rating (0 to 100 scale)
parameter-measured: pest or weed control at 500 g/ha (%)
Please respond with the number in % and leave the unit unwritten.

N#Cc1cccc(Oc2ncc(Cl)cn2)c1CCCCC(F)(F)F 100
O=C(OCC(F)(F)C(F)(F)F)c1c(Br)cccc1Oc1ncc(Cl)cn1 70
C=CCOC(=O)c1c(Br)cccc1Oc1ncc(Cl)cn1 60

Now for the molecule whose pest or weed control at 500 g/ha we want.
**Q:** Using the record for `O=C(OCCCC(F)(F)F)c1c(Br)cccc1Oc1ncc(Cl)cn1` , report its pest or weed control at 500 g/ha.
**A:** 40
